target: T1, cynomolgus folate receptor alpha, recombinant (cynomolgus, UniProt A0A2K5U044 25-233); assay: BLI, purified VHH
T1 construct: also called cyFOLR1; cynomolgus FRα
T1 sequence (A0A2K5U044 entry or part of it): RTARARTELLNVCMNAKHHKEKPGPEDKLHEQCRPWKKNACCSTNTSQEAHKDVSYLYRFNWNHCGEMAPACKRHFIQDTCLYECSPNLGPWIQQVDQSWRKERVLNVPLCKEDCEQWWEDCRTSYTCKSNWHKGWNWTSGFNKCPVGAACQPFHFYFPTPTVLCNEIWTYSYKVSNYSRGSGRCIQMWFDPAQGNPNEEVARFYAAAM
test-readout: koff (s⁻¹)

Record excerpt, results attached:
[
  {
    "binder": "P01500006: 2HF042(Q1E, Q5V, A14P, V40A, L79Y, K83R, Q108L)-FLAG3-HIS6 (VHH, Entry includes the tags; also called P0150006) VHH: EVQLVESGGGLVQPGGSLRLSCAASGSGFSGMIMGWYRQAPGKQRELVATVTSHGTTNYADSVKGRFTISRDNAKNTVYLQMNSLRPEDTAVYYCNAHFPGIYWGKGTLVTVSS",
    "koff [s⁻¹]": 0.00158
  },
  {
    "binder": "P01500047: P01500001(G26E, G28T, S30I, I33L)-FLAG3-HIS6 (VHH, also called P0150047) VHH: EVQLVESGGGLVQPGGSLRLSCAASESTFIGMLMGWYRQAPGKQRELVATVTSHGTTNYADSVKGRFTISRDNAKNTVYLQMNSLRPEDTAVYYCNAHFPGIYWGKGTLVTVSS",
    "koff [s⁻¹]": 0.000219
  }
]

I = P01500055: P01500001(V51R, D72E, N73G)-FLAG3-HIS6 (VHH, also called P0150055) VHH: EVQLVESGGGLVQPGGSLRLSCAASGSGFSGMIMGWYRQAPGKQRELVATRTSHGTTNYADSVKGRFTISREGAKNTVYLQMNSLRPEDTAVYYCNAHFPGIYWGKGTLVTVSS
II = P01500045: P01500001(G26E, I33L)-FLAG3-HIS6 (VHH, also called P0150045) VHH: EVQLVESGGGLVQPGGSLRLSCAASESGFSGMLMGWYRQAPGKQRELVATVTSHGTTNYADSVKGRFTISRDNAKNTVYLQMNSLRPEDTAVYYCNAHFPGIYWGKGTLVTVSS
Could you determine which record has the numerically smaller koff? Candidates: I and II Lab log: write the label of the selected item as the result.
I
(I: 4.24e-05 s⁻¹, II: 0.00036 s⁻¹)
